All figures here come from the supplement of paper PMC10567573.

# testSummary: protein stability index of a GFP-peptide fusion (GPS, HEK-293T) (PSI 1-6); higher = more stable;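 also: 24-mer peptide tiles fused after GFP, lentivirally expressed, FACS-sorted into six equal bins by GFP/DsRed ratio, decoded by Illumina sequencing, PSI is the read-weighted mean bin number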
# settings: treatment: MLN4924 1 uM, 8 h; c terminus: a fixed tail appended
Answer no if protein stability index is under 4, and yes if it is 4 or more.

residueCodes | label
PSCLACNRQCLCSAESMVEYGTCM [SPRY1] | no
CSKSYSRRSFLIEHQRSHTGERPH [ZSCAN9] | no
PRLQQLLKTLEEGLEGLEDAPPVE [FANCE] | yes
RYGRRTAIILSSCLLGLGSLVLIL [SLC2A12] | yes
ISKSLELCNEISLSEIKDAPKVNA [DLC1] | yes

Could you tell me if the measured protein stability index of LIFSPCSDCEEEEEEEEEEGSGHS [WEE1] reaches 4 or more?
yes

Form field: protein stability index at least 4? Entry: LVEAVLSGEVLNGAAVVRPPGHHA [HDAC6]
no

Reported protein stability index at or above 4? YQQLCIYWTKYYDFKNPIIEKYLR [OAS1]
no

Confirm if protein stability index reported for the sequence TRGHAISILFGFWTSFICDTYIVL [SMIM2] is 4 or above.
no

Please tell me: is the sequence GAHWMRQLVSFQKLKLTNNHLDPF [TBX5] at or over 4 in terms of protein stability index?
no

Decide: is the reported value of protein stability index for VQLIWVVSQLYPESIVPIPSSNEE [INTS4] equal to or greater than 4?
no

Reported protein stability index reaches at least 4 for ILTGCKNMLFQQNKDGIGEICLWG [ACSBG2] ?
no

Is it the case that TFDIDPMVVTDCIQVDPPERPPPP [MCOLN1] has protein stability index reaching or exceeding 4?
yes

Does the reported protein stability index for GQQSDTAQLELYQLQVESNSSQLL [SCARA5] fall at or above the 4 mark?
yes

Evaluate VSEDFNKMNFIKTYPAHQNRVSAI [WDFY1] : protein stability index at minimum 4?
no

Given LVRGHRRRLLRRLSPSRGVAQCLR [ZSWIM9] , state whether its protein stability index is at least 4.
no

* * *

# testSummary: protein stability index of a GFP-peptide fusion (GPS, HEK-293T) (PSI 1-6); higher = more stable
# settings: treatment: MLN4924 1 uM, 8 h; c terminus: a fixed tail appended
What protein stability index was measured for each of the following?
Give bare numbers.

residueCodes | reportedValue
LYSLAPTMGAVVLSSTLLSFSTAI [MFSD9] | 2.96

Go through the items and report each one's protein stability index.
1. WNMDKYTMIRKLEGHHHDVVACDF [WSB1]
2. IVSRATGRCLEVEMSKDANFGLRL [GALNT9]
3. LPEKACQLDSRYWRITNAKGDVEE [FBXO3]
4. DQLRSGSPPKSPRTTVHDKSAHQT [DNAJC4]

2.58
2.72
4.49
5.4

I'm hoping you can list protein stability index for every sequence here, please.
1. QLKRQKRDYIHSLKLLNVLEEYIT [FAM9B]
2. SAAAATAELLKKQEELNRKAEELD [SCAMP3]
3. LTPHIVQYQANKVTHTLTMRQRIS [PPEF2]
4. DSTMRILSNLVQHILKKYYGNGMR [RTP4]
5. HGSGSSLVVIQQPSLDSRQRLDYE [SPRY1]

[2.56, 5.52, 3, 2.46, 3.99]

Please supply protein stability index for each of the following items, keeping them in order.
1. ATLAACTSNGWGVTDCKHTEDVGV [LOXL2]
2. DREVAIYSKESIIFGASSVDFSLS [GNB5]
3. LQTLRSFSHTLVSLSLFGCTNIFY [ZER1]
4. LLEQAGSLKGSLSVEEQLSLISGC [CRYL1]
5. GISNALHRLKLRLAIQEMVSLTSP [PPFIA4]
6. TATTAPPALDIFGDLFESTPEVAA [SNAP91]
7. LEIYQSSQDEPIALDKQHSRDSAA [NOL4L]
8. GTLDCISMALTCTFNRWGTLLAVG [RBBP5]

4.08
3.2
3.67
3.2
2.18
4.71
5.16
3.24

* * *

# testSummary: protein stability index of a GFP-peptide fusion (GPS, HEK-293T) (PSI 1-6); higher = more stable
# settings: treatment: DMSO; c terminus: a fixed tail appended
recordedMetric: protein stability index
Give bare numbers.

Solved cases (5 shown):
residueCodes | recordedMetric | reportedValue
SGGSGGRGTGQLNRFVQLSGRPHL [KLHDC10] | protein stability index | 3.48
PREDGASVNDQCGFGVLRLDADAA [TSPAN10] | protein stability index | 4.38
LEIYQSSQDEPIALDKQHSRDSAA [NOL4L] | protein stability index | 4.89
QQHAEGSPEPGTPAAPTPESFTVH [DNAAF3] | protein stability index | 5.17
ESHEVPGTLSMGVPQIFKYGETCF [ZNF24] | protein stability index | 2.74

Provide each entry's protein stability index from the list below.
1. IVRRFLNICENTEGAIAVHCKAGL [CDC14A]
2. PHAMTIQELVDYVNARQKQGIYEE [PTPN9]
3. KKAWDDLKKYLEPRCPRMVLSLKE [FBXO3]

2.36
3.23
2.78

Consider the following items and state reported protein stability index for each.
1. DVIGDEICCWSFYGQGRKIAEVCC [KCTD10]
2. TLKIRNSNFYTVAVTSLSSQIQYM [TMEM106C]
3. KATEPTETVQTWIELLTGETWNPF [GOLPH3L]
4. YILELDDGNGGQFREVYVGKETMC [TRIM9]
5. GSAYLFVESSLDKVVLSDAYAHPQ [TRADD]

1. 2.42
2. 2.23
3. 2.36
4. 2.28
5. 2.22

* * *

# testSummary: protein stability index of a GFP-peptide fusion (GPS, HEK-293T) (PSI 1-6); higher = more stable
# settings: treatment: DMSO; c terminus: a fixed tail appended
Tag: true if measured protein stability index is not below 3, false if it is.

Study these solved cases before continuing.
residueCodes | label
AFEFKKPVRPVSRGCLHSHGLQEG [CDC25A] | false
PLTGFLTTVPDGPTQLRALNLTEG [TNXB] | true
ILIASRDIAAGEELLYDYGDRSKA [KMT5A] | true

Is protein stability index for MAMVVSTWRDPQDEVPGSQGSQAS [NR2F2] at or above 3?
true

API: above_or_equal(metric=protein stability index, cutoff=3) for item RFPLMTPQELINYVQTVDFMRTDN [KLHL13]
false

Say whether DVNEQVMQVLGPEDLQSIIYKLEE [CEP70] shows protein stability index of 3 or more.
true

Determine whether this sequence has protein stability index no lower than 3: KLPSSGSGKRLSGVSSVDSAFSSR [RIPK4]
true

Decide: protein stability index of RRALAPPSAGFRCCAAPGPHVALA [ANKRD9] >= 3?
false

In plain terms: is recorded protein stability index at least 3 for PRNADKIRVKIADLGNACWVHKHF [SRPK2] ?
false

Identify whether the reported protein stability index of the following sequence is 3 or greater: PPPGSLSRTQEPSLGKQKVFIIRK [SOAT2]
true

Exam item: decide whether the reported protein stability index for ALSYAQHTRQLISCGGDGGIVVWN [WDFY2] is at least 3.
false

Identify whether the reported protein stability index of the following sequence is 3 or greater: LADDHLIEVNGENVEDASHEEVVE [PDZK1]
true

Confirm if protein stability index reported for the sequence DQEHNVAALKQAIKDKEAPLHVAQ [TEKT4] is 3 or above.
true

* * *

# testSummary: protein stability index of a GFP-peptide fusion (GPS, HEK-293T) (PSI 1-6); higher = more stable
# settings: treatment: DMSO; c terminus: a fixed tail appended
recordedMetric: protein stability index
Numbers only.

Please go through the list and note protein stability index for each sequence.
1. QYNRPISDFLTLHSIIISLVEAGA [FEM1B]
2. MKQRDNCKIRIQRQLEIMGKEVSG [STX11]
3. LSGVSQLLPKSRENYLNRCMDQER [FCHO1]
4. VTSQERHCLQQRRKSVPGPGNRTC [ADAMTSL2]

[2.34, 3.27, 3.78, 4.92]

Batch request: protein stability index per item, same order as input.
1. TTNPHTSASHRPCVNGDVDKPSEP [SMG5]
2. ISSVGGEAMFCDFPKINHGILYDE [CFHR2]
3. PERRRSPGPAPGSPGELEEDLLLP [WEE1]
4. QKYKLFQQQQLTFTAALEHCRENA [SPACA9]
5. KKSRSPASAEAPGDSGERSEGEAM [ZNF511]
6. RDGGLCVNDLAVGLRRLGLHRTEG [SLC25A25]
7. NIRPSSSGGYWVGMSTIRPNPGFS [APMAP]

5.15
3.38
5.33
2.86
5.53
3.12
2.61

For each of the items listed, what is its protein stability index?
1. QYEEIALKSKAEAEALYQTKFQEL [KRT71]
2. IHSCFSDVTCFLLPHPGLQVATSP [ATL3]
3. FNLTPPICEQAEYHMFQREKVEVQ [KCNAB2]

4.08
2.34
3.72

Please give protein stability index for each item listed below.
1. MSSEVSARRDAKKLVRSPSGLRMV [ZFYVE21]
2. EKMMQEAEKLKAQGEYSRKLEERF [CCDC89]
3. ELSPLALGRFSLTPAEGDTEEDDG [CDC25B]
4. ESEPPAPNIRNMAPNSLSAPTMLH [TRAF3IP2]

3.67
3.48
5.44
4.54

Hi! Can you tell me protein stability index for each of these sequences?
1. LYSLAPTMGAVVLSSTLLSFSTAI [MFSD9]
2. RSNADYQYQLLRCNVDLLKIIQLG [CNOT7]
3. DREVAIYSKESIIFGASSVDFSLS [GNB5]
4. TASSSYGKGEGPIWLDNLHCTGNE [LOXL2]
5. PRPGTGQSRSFRILAHLTGTEFMQ [PDLIM7]
6. LLKTEALKRQAQEEAKGALLGTSG [DAPK3]
7. DITAYLFGFFFGRTPLIKLSPKKT [CDS1]

1. 3.19
2. 2.61
3. 2.98
4. 3.91
5. 2.47
6. 4.89
7. 3.11

I would be grateful if you could provide protein stability index for each of the following entries.
1. KVRALEEANADLEVKIRDWHLKQS [KRT13]
2. FACLSVLFVTVTAVNLSVSTLPSL [KCNG1]
3. YFTDLFDYLPLTALVDGQIFCLHG [PPP2CA]
4. SGCLPPEPLFEAGDATLASDLQDW [FOXJ1]
5. KELILDKVYTHPKWNTQTKARSYS [ZC2HC1C]

4.05
3.15
3.22
4.82
2.91

Dear colleague, could you please provide protein stability index for the sequences listed below?
1. ISKSLELCNEISLSEIKDAPKVNA [DLC1]
2. AQAGGSKKAEQKKKEKIIEDKTFG [ZC3H15]
3. ERHKLKRQDADAWTLYKILDSCKQ [SMG5]
4. EGLLRFSSWPFSIQDVVQPLTLQV [AUP1]
5. MSDTAVADTRRLNSKPQDLTDAYG [SNX12]

4.12
5.12
2.75
2.85
4.96

# batch size: 7; output protein stability index per entry
1. SWEVVRNPLIASSFSLVKLVLRRQ [C22orf31]
2. QHGFFRRTADEATNTGPAGSSAST [DYRK1B]
3. VVTAEAVAVLKGEQEKEAQHKDQT [MAP2]
4. GLWGTTLTENTAENRELYIKTTLR [PKD2L1]
5. PLSPIQASSVHLKSESSLPHQTSK
6. PSEICDRLVNEYVELVNAACNFEP [ZER1]
7. FSKQIVLRGKSIKRAPGEETEKEE [NEUROD6]

2.52
5.02
5.49
3.19
5.02
3.15
4.94
